Assay: Oral bioavailability in cynomolgus monkey at 3 mg/kg by LC-MS/MS analysis
Format: ADME, organism-based, Macaca fascicularis
Conditions: in vivo
measuredMetric: bioavailability (%)

1. COc1cc(F)c([C@@H]2CNC(=O)[C@H]2NC(=O)Nc2ccccc2)c(F)c1
49

----------
Experiment: Oral bioavailability in Beagle dog at 1 mg/kg by LC-MS/MS analysis
Assay type: ADME, organism-based, Canis lupus familiaris
Conditions: in vivo
measuredMetric: bioavailability (%)

1. COc1cc(F)c([C@@H]2CNC(=O)[C@H]2NC(=O)Nc2ccccc2)c(F)c1
50

----------
Assay: Half life in BALB/cCrSlc mouse at 1 mg/kg, po by LC-MS/MS analysis
Assay type: ADME, organism-based
Details: in vivo
measuredMetric: half-life (min)

1) COc1cc(F)c([C@@H]2CNC(=O)[C@H]2NC(=O)Nc2ccccc2)c(F)c1
40.8
